So I've got a bunch of variants here, and I need their self-cleavage values.
B1: Twister Ribozyme (parent)
chain: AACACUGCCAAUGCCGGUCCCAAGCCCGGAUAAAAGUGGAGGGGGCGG

Variants of: B1
Assay: self-cleavage, relative activity (ratio to wild type); higher = more cleavage; co-transcriptional
Give bare numbers.

1. G28U A34G: 0.574
2. U12G C46G: 0.757
3. G17U C25U: 0.204
4. U6G G24A: 0.0855
5. G7U G16A: 0.0674
6. G17C A40C: 0.117
7. U6A G17C: 0.0763
8. A33C G47A: 0.782

Kindly give each listed record's self-cleavage.
1. A4U U31A
2. A33U G47U
3. C15U G38C
4. G17A G38U

1: 0.143; 2: 0.81; 3: 0.801; 4: 0.468
